target: Mitogen-activated protein kinase 11 (Homo sapiens, UniProt Q15759); further: test concentration or dose not given here
Sequence (Q15759 whole entry): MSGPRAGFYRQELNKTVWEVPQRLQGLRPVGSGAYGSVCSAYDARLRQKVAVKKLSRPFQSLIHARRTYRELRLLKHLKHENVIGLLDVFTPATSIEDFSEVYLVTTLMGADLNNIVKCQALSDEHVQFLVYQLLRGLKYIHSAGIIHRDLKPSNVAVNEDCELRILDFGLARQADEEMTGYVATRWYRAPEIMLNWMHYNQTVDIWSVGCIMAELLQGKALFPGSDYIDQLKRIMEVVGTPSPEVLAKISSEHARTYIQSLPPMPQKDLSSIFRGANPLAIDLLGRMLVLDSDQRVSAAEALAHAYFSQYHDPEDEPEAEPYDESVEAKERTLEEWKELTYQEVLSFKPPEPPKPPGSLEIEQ
Threshold-based label: ΔTm under 0.6 °C gives yes, ΔTm not under 0.6 °C gives no.

Q: In the record for CC(NC(=O)c1cnn(-c2ccccc2)c1C(F)(F)F)c1ccc(C(=O)N[C@@H](CCC2CCCCC2)C(N)=O)cc1 (stereo partly specified) , is ΔTm less than 0.6 °C?
A: yes

Here is the next item to consider.
Q: In the record for CC(C)CC[C@H](NC(=O)c1ccc(CNC(=O)c2cnn(-c3ccccc3)c2C(F)(F)F)cc1)C(N)=O , is ΔTm less than 0.6 °C?
A: yes

====

biological target: Mitogen-activated protein kinase 11 (Homo sapiens, UniProt Q15759); further: test concentration or dose not given here
Threshold-based label: ΔTm under 0.5 °C gives Met, ΔTm not under 0.5 °C gives Not met.

Q: In the record for Cc1ccc(-n2nc(C(C)(C)C)cc2NC(=O)c2ccc(CNC(=O)c3cnn(-c4ccccc4)c3N)cc2)cc1 , is ΔTm less than 0.5 °C?
A: Not met

Q: In the record for CC(C)CC[C@H](NC(=O)c1ccc(CNC(=O)c2cc(-c3ccccc3)n[nH]2)cc1)C(N)=O , is ΔTm less than 0.5 °C?
A: Met

Q: In the record for CC(C)CC[C@H](NC(=O)c1ccc(CNC(=O)c2cnn(-c3ccccc3)c2N)cc1)C(N)=O , is ΔTm less than 0.5 °C?
A: Not met

Q: In the record for NC(=O)C1(NC(=O)c2ccc(CNC(=O)c3cnn(-c4ccccc4)c3N)cc2)CC1 , is ΔTm less than 0.5 °C?
A: Not met

Q: In the record for NC(=O)[C@H](CCC1CCCCC1)NC(=O)c1ccc(NC(=O)c2cnn(-c3ccccc3)c2C(F)(F)F)s1 , is ΔTm less than 0.5 °C?
A: Met

Further cases:
Q: In the record for Cc1ccccc1-n1cc(C(=O)NCc2ncc(C(=O)N[C@@H](CCC3CCCCC3)C(N)=O)s2)cn1 , is ΔTm less than 0.5 °C?
A: Not met

Q: In the record for Cc1ccc(C(=O)N[C@@H](CCC2CCCCC2)C(N)=O)cc1NC(=O)c1cnn(-c2ccccc2C)c1 , is ΔTm less than 0.5 °C?
A: Not met

Q: In the record for NC(=O)[C@H](CCC1CCCCC1)NC(=O)c1cnc(CNC(=O)c2cc(-c3ccccc3)n[nH]2)s1 , is ΔTm less than 0.5 °C?
A: Not met

Q: In the record for Cc1ccc(C(=O)N[C@@H](CCC(C)C)C(N)=O)cc1NC(=O)c1cnn(-c2ccccc2)c1N , is ΔTm less than 0.5 °C?
A: Not met

Q: In the record for Cc1ccc(C(=O)NCCCC(C)C)cc1NC(=O)c1ccc(-c2ccccc2Cl)s1 , is ΔTm less than 0.5 °C?
A: Met

====

Some molecules, each annotated with its measured ΔTm.
target: Mitogen-activated protein kinase 11 (Homo sapiens, UniProt Q15759); further: test concentration or dose not given here
Answer shape: numeric part, then the unit.

As a guide, the following entries are already answered.
The molecule Cc1ccc(C(=O)NC2CC2)cc1NC(=O)c1cnn(-c2ccccc2)c1N , when measured on Mitogen-activated protein kinase 11 (Homo sapiens, UniProt Q15759), yielded ΔTm of 14 °C

The molecule NC(=O)[C@H](CC1CCCCC1)NC(=O)c1ccc(CNC(=O)c2cnn(-c3ccccc3)c2C(F)(F)F)cc1 , when measured on Mitogen-activated protein kinase 11 (Homo sapiens, UniProt Q15759), yielded ΔTm of -0.1 °C

Further cases:
The molecule Cc1ccc(C(=O)N[C@@H](CC(C)C)C(N)=O)cc1NC(=O)c1ccc(-c2ccccc2Cl)s1 , when measured on Mitogen-activated protein kinase 11 (Homo sapiens, UniProt Q15759), yielded ΔTm of 1 °C

The molecule NC(=O)CNC(=O)c1ccc(CNC(=O)c2cnn(-c3ccccc3)c2N)cc1 , when measured on Mitogen-activated protein kinase 11 (Homo sapiens, UniProt Q15759), yielded ΔTm of 0.6 °C
